Hello, the source for this data is PubChem BioAssay (NCI), in case you need it.

- System: 786-0 renal
- measurement.notes: NCI-60 one-dose screen, 48 h (100 = growth as untreated, 0 = no growth, -100 = all killed)
- experimental.conditions: 10 µM unless noted
The panel holds about 83,000 compounds, 20% with a hit somewhere; the sample as a whole holds those more often.
Field 'label' (enum: YES / NO). Set to YES when growth is strictly under 90%; else NO.

Look over these answered cases.
| compound | assayed.target | category |
| --- | --- | --- |
| COc1cc(/C=C2/C(=O)Nc3ccc(Cl)cc32)ccc1OCc1ccc(Cl)cc1 | 786-0 renal | NO |
| CCNC(=O)Oc1ccc(/C(=C(/C)c2ccc(Cl)cc2)c2ccc(OCCN3CCCCCC3)cc2)cc1 | 786-0 renal | YES |
| CCN(CC)CCOc1ccc(C(=C(C)Cc2ccc(OC)cc2)c2ccc(OCCN(CC)CC)cc2)cc1 | 786-0 renal | YES |

Consider O=[N+]([O-])c1ccc(NC(=S)NNC(=S)Nc2ccc(F)cc2)cc1 . Does its growth lie strictly below 90%?
NO

Item: CCCCc1nc2c(N)nc3ccccc3c2n1Cc1ccc(OC)cc1
YES

Param item: Brc1cc(-c2cc(-c3ccc4c(c3)OCCO4)[nH]n2)cs1
YES

// repeat for O=S(=O)(Oc1ccc(-c2cn3ccoc3n2)cc1)c1cccc(C(F)(F)F)c1 and report
NO

Try the molecule COc1ccc2c(c1)c(-c1nn3cc(-c4ccncc4)nc3s1)cn2C
NO

Proceed to CCOC(=O)c1cccc(NC2=C(Cl)C(=O)c3nc(C)ccc3C2=O)c1
NO

Please answer likewise for CCN(CC)c1ccc(/C=N/NC(=O)c2ccc(NS(C)(=O)=O)cc2)cc1
YES

Do the same for NS(=O)(=O)c1ccc(Nc2nc(N/N=C/c3ccc4c(c3)OCO4)nc(Nc3ccccc3)n2)cc1 please
YES

###

- System: SF-295 CNS
- measurement.notes: NCI-60 one-dose screen, 48 h
- experimental.conditions: 10 µM unless noted
About 83,000 compounds went through this panel and 20% of them were active in at least one assay; those are over-represented in the sample as a whole. Activity calls are given as the source filed them. How the source made its calls: active means growth percent below 10; inactive means the rest.
Pick one: active, inactive

Use these answered entries as a reference point.
| compound | category |
| --- | --- |
| O=C(CSc1nc2ccccc2c(=O)n1-c1ccccc1)N/N=C/c1ccc(Oc2ccc(Br)cc2)cc1 | inactive |
| C#CCOc1ccc(/C=N/Nc2nc(-c3ccc(OC)cc3)cs2)cc1 | inactive |
| Cc1[nH]c(C(=O)Nc2ccccc2OCc2cccc(C(=O)NCCN)c2)cc1Cl | inactive |
| COC(=O)c1cccc(NC2=C(Cl)C(=O)c3nc(C)ccc3C2=O)c1 | inactive |
| COc1ccc2sc(NC(=O)CCCCCCNC(=O)C(O)(O)C(F)(F)F)nc2c1 | active |

Field: outcome | Entry: O=C(N/N=C\c1ccc([N+](=O)[O-])cc1)c1ccc2nc(-c3ccc(Br)cc3)[nH]c2c1
inactive

What would you report for COc1ccc2c(c1)c(-c1nnc(N)nc1-c1c[nH]c3ccc(F)cc13)cn2C ?
inactive

Next compound: CC(Nc1ncnc2ccc(-c3cnc(N)nc3)cc12)c1ccccc1 (stereo not given)
inactive

Query CCc1cc(O)ccc1Nc1cc(-c2ccc(-n3cccn3)cc2)[nH]n1 next
inactive

Further, for O=C1[C@@H]2Cc3c([nH]c4ccccc34)[C@@H](c3ccc(Cl)cc3)N2C(=O)CN1C1CCN(Cc2c(F)cccc2F)CC1 ?
inactive

Now the same for Cc1ccccc1Nc1nc(SC(C)C)nc(-c2ccccc2)c1C#N
inactive

Same for O=C1C(SCc2ccccc2)=C(Cl)CN1c1ccccc1
inactive
